- Tested on: Escherichia coli TOP10;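 also: peptides expressed intracellularly from a pBAD plasmid library in pooled LB shake-flask culture, induced with 0.3% L-arabinose, DNA abundance read by NGS, three biological replicates, DESeq2 with apeglm shrinkage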
- experimental_details: shrunken log2 fold change of peptide-encoding DNA abundance (4.5 h post-induction vs induction); higher = less antimicrobial activity (less host growth inhibition)
- test_parameters: time post-induction: 4.5 h; library: site-saturation at positions 5, 18, 19, 20
Everything with shrunken log2 fold change lower than -0.2 is Not met; everything else, including exactly -0.2, is Met.

Previously resolved entries follow.
RRIRSRPPRLPRPRPRPKREPRP ... Met
RRIRRRPPRLPRPRPRPVEVPRP ... Met

Request: Reported shrunken log2 fold change reaches at least -0.2 for RRIRIRPPRLPRPRPRPVCMPRP ?
Response: Not met

Request: Quick check: does RRIRYRPPRLPRPRPRPVFGPRP have shrunken log2 fold change greater than or equal to -0.2?
Response: Not met

Request: Hello, I need to know if RRIRERPPRLPRPRPRPWLLPRP has measured shrunken log2 fold change not below -0.2. Thanks!
Response: Not met

Request: Say whether RRIRERPPRLPRPRPRPFTRPRP shows shrunken log2 fold change of -0.2 or more.
Response: Met

The values you see were collected from the supplement of paper PMC9112550.
